Entries annotated with measured normalized growth
# procedure.details: chemical genetic growth profiling, strain panel (AID 1159580);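 also: tested at 20 µM; growth read once vehicle control cultures reached saturation at 30 °C; 1 = growth at the plate median or of vehicle wells; lower values mean less growth of the strain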
# applied.conditions: S. cerevisiae deletion strains, growth OD, locus YAL040C, strain CLN3, stronger effect = lower value
The whole screen tested about 5,500 compounds, of which about 2,000 (36%) were called active. Roughly 18% stayed inconclusive and do not appear here. The list shows a part of the results.
// no unit, no text: just the number

## Input Would you kindly share the measured normalized growth for C=CCc1ccccc1OCC(O)CNC(C)C (stereo unspecified) ?
## Output 0.974

## Input Param item: CCNC(=O)[C@H]1O[C@@H](n2cnc3c(N)nc(NCCc4ccc(CCC(=O)O)cc4)nc32)C(O)[C@H]1O (stereo partly specified)
## Output 0.963

## Input Param item: Nc1ccn([C@H]2CC[C@@H](CO)O2)c(=O)n1
## Output 1.01

## Input Param item: O=c1[nH]c2cc(Cl)c(Cl)cc2[nH]c1=O
## Output 1.11

## Input Param item: CC(=O)Oc1cc(C(C)C)c(OCCN(C)C)cc1C
## Output 1.01

## Input Param item: CN1CCC23CCCC[C@H]2C1Cc1ccc(O)cc13 (stereo partly specified)
## Output 1.01

***
## Input Would you kindly share the measured normalized growth for NCCCCNS(=O)(=O)c1cccc2c(Cl)cccc12 ?
## Output 1.02

## Input Param item: N[C@@H](Cn1cc(I)c(=O)[nH]c1=O)C(=O)O
## Output 0.979

## Input Param item: CN1C[C@@H](CS(=O)(=O)N(C)C)C[C@@H]2c3cccc4c3c(cn4C)C[C@H]21
## Output 1.01

## Input Param item: CCCn1c(=O)[nH]c(=O)c2[nH]cnc21
## Output 1.05

## Input Param item: O=c1[nH]c2cc([N+](=O)[O-])c([N+](=O)[O-])cc2[nH]c1=O
## Output 1.03

## Input Param item: NCCNC(=O)Cc1ccc(NC(=O)Cc2ccc(Nc3ncnc4c3ncn4[C@@H]3O[C@H](CO)[C@H](O)C3O)cc2)cc1 (stereo partly specified)
## Output 1.01

## Input Param item: CC(N)Cc1c[nH]c2ccc(OCc3cccs3)cc12 (stereo unspecified)
## Output 1.02

## Input Param item: N=c1ccn2c(n1)OC1C(O)[C@@H](CO)O[C@H]12 (stereo partly specified)
## Output 1

## Input Param item: [N-]=[N+]=Nc1ccc(C(=O)CSC[C@H](NC(=O)CC[C@H](N)C(=O)O)C(=O)NCC(=O)O)cc1
## Output 1.02

## Input Param item: CC1(NCC(O)COc2cccc3[nH]ccc23)CCC(C(C)(C)NC(=O)CBr)CC1 (stereo unspecified)
## Output 1.04

* * *

# procedure.details: chemical genetic growth profiling, strain panel (AID 1159580);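 also: tested at 20 µM; growth read once vehicle control cultures reached saturation at 30 °C; 1 = growth at the plate median or of vehicle wells; lower values mean less growth of the strain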
# applied.conditions: S. cerevisiae deletion strains, growth OD, locus YBL061C, strain skt5, stronger effect = lower value
Screen size: about 5,500 compounds; about 2,000 (36%) were called active. Inconclusive results (about 18%) are left out. Some of the results follow.
experimental.endpoint: normalized growth
// no unit, no text: just the number

These solved cases illustrate the format of a correct answer.
## Input Would you kindly share the measured normalized growth for O=c1c(-c2cc(O)c(O)c(O)c2)coc2cc(O)c(O)c(O)c12 ?
## Output 0.94

## Input Param item: C=CCc1ccccc1OCC(O)CNC(C)C (configuration not stated)
## Output 1

## Input Param item: O=C(O)c1nc2cc(Cl)c(Cl)cc2[nH]c1=O
## Output 1.01

***
## Input Would you kindly share the measured normalized growth for O=C1CN2Cc3c(ccc(Cl)c3Cl)N=C2N1 ?
## Output 1

## Input Param item: CC1(C)O[C@@H]2CC3C4C[C@H](F)C5=CC(=O)C=CC5(C)C4C(O)CC3(C)[C@]2(C(=O)CO)O1 (some centres not stated)
## Output 0.979

## Input Param item: O=C(O)/C=C(\CC(=O)O)C(=O)O
## Output 0.994

## Input Param item: COc1cc([C@@H]2c3cc4c(cc3[C@H](OC(C)=O)[C@H]3COC(=O)[C@H]23)OCO4)cc(OC)c1OC
## Output 1.01

## Input Param item: CC(=O)Nc1ccc(OC(=O)c2ccccc2O)cc1
## Output 0.972

## Input Param item: COC(=O)C1=C(C)NC(C)=C(C(=O)OCC(C)C)C1c1ccccc1[N+](=O)[O-] (configuration not stated)
## Output 0.19

## Input Param item: COC(=O)C1=C(C)NC(C)=C(C(=O)OCCN(C)Cc2ccccc2)C1c1cccc([N+](=O)[O-])c1 (configuration not stated)
## Output 0.984

## Input Param item: CC(=O)Oc1ccc(-c2cc(=O)c3c(OC(C)=O)cc(OC(C)=O)cc3o2)cc1
## Output 0.965

## Input Param item: Nc1ccc(C(=O)Oc2ccccc2)c(O)c1
## Output 0.932

## Input Param item: COc1ccc(-c2cc(=O)c3ccccc3o2)cc1
## Output 0.869

## Input Param item: CC1=NCCc2c1[nH]c1cc(O)ccc21
## Output 0.995

## Input Param item: COc1cc2c3cc1Oc1cc(ccc1O)C[C@@H]1c4c(cc(OC)c(O)c4Oc4ccc(cc4)C[C@@H]3N(C)CC2)CC[N+]1(C)C
## Output 1

## Input Param item: CC(C)Oc1ccc2c(=O)cc(-c3ccccc3)oc2c1
## Output 0.929

Every entry's value here was drawn from PubChem BioAssay AID1159580.
